system: velvetleaf; assay: Test A pre-/postemergence herbicide test; type: in vivo, Abutilon theophrasti; details: Postemergence, 2000 g ai/ha; 0 to 100 scale, 0 no effect, 100 complete control
Known Plant response rating, Velvetleaf of a selection of molecules

{"MOLECULE": "CC(=O)c1cccc(NC(=O)c2sc(C(C)(C)C)nc2C)c1 [Compound 196]", "SYSTEM": "velvetleaf", "OBSERVED_VALUE": 0}
{"MOLECULE": "CCNC(=O)c1ccc(F)c(NC(=O)c2cc(C(C)(C)C)nn2CC)n1 [Compound 278]", "SYSTEM": "velvetleaf", "OBSERVED_VALUE": 25}
{"MOLECULE": "CCn1nc(C(C)(C)C)cc1C(=O)Nc1cc(C(=O)NC(C)(C)C)ccn1 [Compound 154]", "SYSTEM": "velvetleaf", "OBSERVED_VALUE": 30}
{"MOLECULE": "CCn1nc(C(C)(C)C)cc1C(=O)Nc1nc(C(=O)N2CC=CC2)ccc1F [Compound 281]", "SYSTEM": "velvetleaf", "OBSERVED_VALUE": 40}

Next item in the queue.
What measured Plant response rating, Velvetleaf goes with CCn1nc(C(C)(C)C)cc1C(=O)Nc1cncc(C(=O)N2CC=CC2)n1 [Compound 290] ?
30
